Recorded normalised viability by entry
- Tested on: BT-549
- Test: normalised viability (% of control), CellTiter-Blue; higher = more viable cells (about 100 = DMSO control)
- Measurement Context: 1000 nM; incubation time: 72 h
// return numeric value only (unit: %, not printed)

// below: answered compounds
Compound	normalised viability [%]
C#Cc1cccc(Nc2ncnc3cc(OCCOC)c(OCCOC)cc23)c1 [Erlotinib]	106
Cc1ccc(-n2nc(C(C)(C)C)cc2NC(=O)Nc2ccc(OCCN3CCOCC3)c3ccccc23)cc1 [Doramapimod]	104
CCC1=C[C@@H]2CN(C1)Cc1c([nH]c3ccccc13)[C@@](C(=O)OC)(c1cc3c(cc1OC)N(C)[C@H]1[C@@](O)(C(=O)OC)[C@H](OC(C)=O)[C@]4(CC)C=CCN5CC[C@]31[C@@H]54)C2 [Vinorelbine]	15.8
COc1cc2nccc(Oc3ccc(NC(=O)C4(C(=O)Nc5ccc(F)cc5)CC4)cc3)c2cc1OC [Cabozantinib]	101

Let us move to another entry and its normalised viability.
Ask | Answer with the recorded normalised viability for the compound listed here: C[C@@H](Oc1cc(-c2cnn(C3CCNCC3)c2)cnc1N)c1c(Cl)ccc(F)c1Cl [Crizotinib]
Reply | 107

These measurements were taken from the supplement of paper PMC4862054.
